B1: HDV Ribozyme (parent)
chain: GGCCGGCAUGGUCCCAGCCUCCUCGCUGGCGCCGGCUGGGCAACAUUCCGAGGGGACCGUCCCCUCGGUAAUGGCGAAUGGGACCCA

Variants of: B1
Experiment: self-cleavage, relative activity (ratio to wild type); higher = more cleavage; co-transcriptional
Heads up, the class ranges for self-cleavage are I (below 0.1), II (0.1 to below 0.4), III (0.4 or more)

>>> print(df.to_string())
    residue_change  category
 0        A8C U27C       III
 1        G5A C57G        II
 2       G34U C63U        II
 3        G1U G38C        II
 4        G1A G80C        II
 5       C14A C32U       III
 6       G28A C41A        II
 7       G55U C86U       III
 8        C7G C21A         I
 9       A51U C86G       III
10       C18G A56U        II
11        G2U A77G         I
12       G38U G59U        II
13       G25C U37G         I
14       G17A A83G       III
15       G73C A83G        II
16       G34C A77C        II
17        C7G A70U       III
18       C36A G53A        II
19       C18G G35U         I
